target: feline FcRn complex (FcRn-α subunit and β-microglobulin), biotin labeled (feline); test: SPR, pH 6
Form field: Kd (one value per entry).
REPORTED ENDPOINT: Kd (nM)

>>> assay_result("feline IgG1a S254V (antibody, part only; not given: Variable domains, not shown: another chain or arm of the molecule) constant: ASTTAPSVFPLAPSCGTTSGATVALACLVLGYFPEPVTVSWNSGALTSGVHTFPAVLQASGLYSLSSMVTVPSSRWLSDTFTCNVAHPPSNTKVDKTVRKTDHPPGPKPCDCPKCPPPEMLGGPSIFIFPPKPKDTLSIVRTPEVTCLVVDLGPDDSDVQITWFVDNTQVYTAKTSPREEQFNSTYRVVSVLPILHQDWLKGKEFKCKVNSKSLPSPIERTISKAKGQPHEPQVYVLPPAQEELSRNKVSVTCLIKSFHPPDIAVEWEITGQPEPENNYRTTPPQLDSDGTYFVYSKLSVDRSHWQRGNTYTCSVSHEALHSHHTQKSLTQSPGK")
9.91
>>> assay_result("feline IgG1a S428N (antibody, part only; not given: Variable domains, not shown: another chain or arm of the molecule; small tags and cut ends) constant: ASTTAPSVFPLAPSCGTTSGATVALACLVLGYFPEPVTVSWNSGALTSGVHTFPAVLQASGLYSLSSMVTVPSSRWLSDTFTCNVAHPPSNTKVDKTVRKTDHPPGPKPCDCPKCPPPEMLGGPSIFIFPPKPKDTLSISRTPEVTCLVVDLGPDDSDVQITWFVDNTQVYTAKTSPREEQFNSTYRVVSVLPILHQDWLKGKEFKCKVNSKSLPSPIERTISKAKGQPHEPQVYVLPPAQEELSRNKVSVTCLIKSFHPPDIAVEWEITGQPEPENNYRTTPPQLDSDGTYFVYSKLSVDRSHWQRGNTYTCSVNHEALHSHHTQKSLTQSPGK")
42.9
>>> assay_result("feline IgG1a T250Q (antibody, part only; not given: Variable domains, not shown: another chain or arm of the molecule) constant: ASTTAPSVFPLAPSCGTTSGATVALACLVLGYFPEPVTVSWNSGALTSGVHTFPAVLQASGLYSLSSMVTVPSSRWLSDTFTCNVAHPPSNTKVDKTVRKTDHPPGPKPCDCPKCPPPEMLGGPSIFIFPPKPKDQLSISRTPEVTCLVVDLGPDDSDVQITWFVDNTQVYTAKTSPREEQFNSTYRVVSVLPILHQDWLKGKEFKCKVNSKSLPSPIERTISKAKGQPHEPQVYVLPPAQEELSRNKVSVTCLIKSFHPPDIAVEWEITGQPEPENNYRTTPPQLDSDGTYFVYSKLSVDRSHWQRGNTYTCSVSHEALHSHHTQKSLTQSPGK")
4.35
>>> assay_result("feline IgG1a S252F/S434W (antibody, part only; not given: Variable domains, not shown: another chain or arm of the molecule) constant: ASTTAPSVFPLAPSCGTTSGATVALACLVLGYFPEPVTVSWNSGALTSGVHTFPAVLQASGLYSLSSMVTVPSSRWLSDTFTCNVAHPPSNTKVDKTVRKTDHPPGPKPCDCPKCPPPEMLGGPSIFIFPPKPKDTLFISRTPEVTCLVVDLGPDDSDVQITWFVDNTQVYTAKTSPREEQFNSTYRVVSVLPILHQDWLKGKEFKCKVNSKSLPSPIERTISKAKGQPHEPQVYVLPPAQEELSRNKVSVTCLIKSFHPPDIAVEWEITGQPEPENNYRTTPPQLDSDGTYFVYSKLSVDRSHWQRGNTYTCSVSHEALHWHHTQKSLTQSPGK")
6.15
